Tested on: Pseudomonas aeruginosa
Assay: Antibacterial activity against Pseudomonas aeruginosa assessed as growth inhibition measured at 50 ug/ml after 24 hrs by broth microdilution method
Type: functional
Cut-off 40% on inhibition at 50 µg/mL, inclusive. At or above means class 1; below means class 0.

Example entries and their recorded answers appear below.
# COMPOUND, ASSIGNED_CATEGORY
rows = [
    ("COC1=C(c2ccccc2)C(=O)OC1C(O)c1ccc(N2CCOCC2)c(F)c1 (stereo not given)", "class 0"),
    ("COC1=C(c2ccc(Br)cc2)C(=O)OC1C(O)c1ccc(N2CCOCC2)c(F)c1 (stereo not given)", "class 0"),
    ("COC1=C(c2ccc(C)cc2)C(=O)OC1C(O)c1ccc(N2CCOCC2)c(F)c1 (stereo not given)", "class 0"),
    ("COC1=C(c2ccccc2)C(=O)O/C1=C\\c1ccccc1", "class 1"),
]

Next, consider the following compound.
Task item: Record COC1=C(c2ccccc2)C(=O)OC1C(O)c1ccccc1 (stereo not given) ; criterion: inhibition at 50 µg/mL no lower than 40%. Met?
Reply: class 1
